# target entity: Human plasma kallikrein (h PK) (Homo sapiens, UniProt P03952)
# Sequence (P03952 391-638 limits assumed): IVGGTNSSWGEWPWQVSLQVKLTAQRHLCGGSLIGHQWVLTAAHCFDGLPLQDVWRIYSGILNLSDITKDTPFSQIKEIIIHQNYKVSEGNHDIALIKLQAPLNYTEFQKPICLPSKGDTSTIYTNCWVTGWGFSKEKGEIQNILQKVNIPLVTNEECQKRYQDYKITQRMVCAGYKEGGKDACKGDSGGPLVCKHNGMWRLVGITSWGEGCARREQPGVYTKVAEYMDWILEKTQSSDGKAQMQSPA
# Sequence (P03952 20-390 partner limits assumed): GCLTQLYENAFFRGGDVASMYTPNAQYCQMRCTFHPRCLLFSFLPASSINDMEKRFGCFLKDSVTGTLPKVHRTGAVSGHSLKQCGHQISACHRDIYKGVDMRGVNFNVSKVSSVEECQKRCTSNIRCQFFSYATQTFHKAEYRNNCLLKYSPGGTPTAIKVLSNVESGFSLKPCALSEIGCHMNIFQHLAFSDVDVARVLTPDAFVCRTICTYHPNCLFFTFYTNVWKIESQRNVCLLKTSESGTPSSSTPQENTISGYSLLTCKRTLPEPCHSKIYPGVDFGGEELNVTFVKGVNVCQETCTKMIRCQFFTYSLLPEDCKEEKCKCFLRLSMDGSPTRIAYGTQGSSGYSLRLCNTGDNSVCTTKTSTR
# test method notes: Inhibition of human plasma kallikrein (reference enzyme)
# assay context: S2302 substrate
# Description: The inhibitory effect against the individual purified enzymes was determined in analogy to a previously disclosed method (Stürzebecher et al., J. Med. Chem., 40, 3091-3099 (1997)). The release of p-nitroaniline (p-NA, the chromogenic product of the proteolytic activity), was determined by change in absorbance at 405 nm. […] Dissociation constants were calculated as described herein.
pKi: −log10 of the molar value. Counter-ions that a name gives are not always drawn.
property: pKi

(I) NCc1ccc(Cl)cc1CNC(=O)CC[C@@H](NS(=O)(=O)Cc1ccccc1)C(=O)N1CCC[C@H]1C(=O)NCc1cc(Cl)ccc1CN
(II) NCc1ccc(Cl)cc1CNC(=O)[C@@H]1CCN1C(=O)[C@@H](CC(=O)N1CCNCC1)NS(=O)(=O)Cc1ccccc1 [Compound 2.50, TFA]
Please indicate which item has the smaller measured pKi: I versus II Answer = label. II
(II: 5.48, I: 6.36)

(P) NCc1ccc(Cl)cc1CNC(=O)[C@@H]1CCCN1C(=O)[C@@H](CC(=O)N1CCCCC1)NS(=O)(=O)Cc1ccccc1
(Q) CN(C(=O)CC[C@@H](NS(=O)(=O)Cc1ccccc1)C(=O)N1CCC[C@H]1C(=O)NCc1cc(Cl)ccc1CN)C1CCOCC1
Please indicate which item has the smaller measured pKi: P versus Q Answer = label. Q

(I) NCc1ccc(Cl)cc1CNC(=O)[C@@H]1CCCN1C(=O)[C@@H](CC(=O)N1CC[C@@H](O)C1)NS(=O)(=O)Cc1ccccc1
(II) NCc1ccc(Cl)cc1CNC(=O)[C@@H]1CCN1C(=O)[C@@H](CCC(=O)N1CCOCC1)NS(=O)(=O)Cc1ccccc1
(III) CC(=O)N1CCC(CN(C)C(=O)C[C@@H](NS(=O)(=O)Cc2ccccc2)C(=O)N2CCC[C@H]2C(=O)NCc2cc(Cl)ccc2CN)CC1
(IV) NCc1ccc(Cl)cc1CNC(=O)[C@@H]1CCCN1C(=O)[C@@H](CC(=O)N1CC[C@@H](N)C1)NS(=O)(=O)Cc1ccccc1
Arrange these compounds by their pKi, starting with the largest number. Form entry: labels listed in requested order. III, I, IV, II
(III: 6.38, I: 6.03, IV: 5.47, II: 5.24)

* * *

pKi: −log10 of the molar value. Where a name gives a salt, the structure may show the parent alone.
Observed pKi values for Human plasmin (h plasmin) (Homo sapiens, UniProt P00747) are listed in what follows.

>  <molecule>
NCc1ccc(Cl)cc1CNC(=O)[C@@H]1CCCN1C(=O)[C@@H](CC(=O)Nc1ccncc1)NS(=O)(=O)Cc1ccccc1

>  <target entity>
Human plasmin (h plasmin) (Homo sapiens, UniProt P00747)
Sequence (P00747 581-810 limits assumed): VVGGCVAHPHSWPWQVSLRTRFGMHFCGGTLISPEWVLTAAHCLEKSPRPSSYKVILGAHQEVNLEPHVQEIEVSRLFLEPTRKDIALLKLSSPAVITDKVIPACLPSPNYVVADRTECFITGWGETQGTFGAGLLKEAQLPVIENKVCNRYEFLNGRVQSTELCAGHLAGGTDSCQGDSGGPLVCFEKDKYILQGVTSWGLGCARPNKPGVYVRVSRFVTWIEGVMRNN
Sequence (P00747 97-580 partner limits assumed): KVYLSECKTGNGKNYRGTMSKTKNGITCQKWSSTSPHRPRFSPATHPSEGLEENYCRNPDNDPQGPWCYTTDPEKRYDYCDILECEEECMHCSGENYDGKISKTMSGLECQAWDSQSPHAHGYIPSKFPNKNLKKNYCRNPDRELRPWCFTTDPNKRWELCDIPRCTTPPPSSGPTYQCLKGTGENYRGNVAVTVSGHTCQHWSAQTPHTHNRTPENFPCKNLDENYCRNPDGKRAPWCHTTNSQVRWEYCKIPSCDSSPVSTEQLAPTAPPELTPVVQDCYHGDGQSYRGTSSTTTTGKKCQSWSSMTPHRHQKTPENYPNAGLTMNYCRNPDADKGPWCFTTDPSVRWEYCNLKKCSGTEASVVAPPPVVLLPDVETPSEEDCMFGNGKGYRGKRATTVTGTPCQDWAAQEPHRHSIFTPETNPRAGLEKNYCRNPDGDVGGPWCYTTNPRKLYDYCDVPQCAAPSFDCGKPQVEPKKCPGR

>  <pKi>
< 4.70

$$$$
>  <molecule>
NCc1ccc(Cl)cc1CNC(=O)[C@@H]1CCCN1C(=O)[C@H](N)CCC(=O)N1CCOCC1 [Compound 2.49, TFA]

>  <target entity>
Human plasmin (h plasmin) (Homo sapiens, UniProt P00747)

>  <pKi>
< 4.00

$$$$
>  <molecule>
NCc1ccc(Cl)cc1CNC(=O)[C@@H]1CCN1C(=O)[C@@H](CC(=O)N1CCOCC1)NS(=O)(=O)Cc1ccccc1

>  <target entity>
Human plasmin (h plasmin) (Homo sapiens, UniProt P00747)

>  <pKi>
< 5.00

$$$$

Moving on to another molecule below.
The recorded pKi for entry CC(=O)N1CCC(N(C)C(=O)CC[C@@H](NS(=O)(=O)Cc2ccccc2)C(=O)N2CCC[C@H]2C(=O)NCc2cc(Cl)ccc2CN)CC1 equals 5.25

* * *

# target entity: Human plasma kallikrein (h PK) (Homo sapiens)
# test method notes: Inhibition of human plasma kallikrein (reference enzyme)
# assay context: S2302 substrate
property: Ki (nM)

(A) N[C@H]1C[C@@H](C(=O)NCc2cc(Cl)ccc2-n2cnnn2)N(C(=O)[C@@H](CCC(=O)N2CCOCC2)NS(=O)(=O)Cc2ccccc2)C1
(B) NCc1ccc(Cl)cc1CNC(=O)[C@@H]1CCCN1C(=O)[C@@H](CCC(=O)N1CCOCC1)NC(=O)OCc1ccccc1
(C) O=C(NCc1cc(Cl)ccc1-n1cnnn1)[C@@H]1CCCN1C(=O)[C@@H](CCC(=O)N1CCOCC1)NS(=O)(=O)Cc1ccccc1
(D) NCc1ccc(Cl)cc1CNC(=O)[C@@H]1CCN1C(=O)[C@@H](CC(=O)N1CCOCC1)NS(=O)(=O)Cc1ccccc1
Please put the 4 compounds above in a list ordered by falling Ki. Form entry: labels listed in requested order. B, D, C, A
(B: 6060 nM, D: 1830 nM, C: 740 nM, A: 390 nM)

* * *

Listed next: entries and their corresponding Ki.
# target entity: Human urokinase type plasminogen activator (h u-PA) (Homo sapiens, UniProt P00749)

Some compounds with known Ki results, for comparison:
>  <structure smiles>
NCc1ccc(Cl)cc1CNC(=O)[C@@H]1C[C@@H](N)CN1C(=O)[C@@H](CC(=O)N1CCCCC1)NS(=O)(=O)Cc1ccccc1

>  <Ki>
> 50 µM

$$$$
>  <structure smiles>
O=C(NCc1cc(Cl)ccc1-n1cnnn1)[C@@H]1C[C@H](O)CN1C(=O)[C@@H](CCC(=O)N1CCOCC1)NS(=O)(=O)Cc1ccccc1

>  <Ki>
> 100 µM

$$$$
>  <structure smiles>
NCc1ccc(Cl)cc1CNC(=O)[C@@H]1CCCN1C(=O)[C@@H](CC(=O)N1CC[S+]([O-])CC1)NS(=O)(=O)Cc1ccccc1

>  <Ki>
> 60 µM

$$$$
>  <structure smiles>
NCc1ccc(Cl)cc1CNC(=O)[C@@H]1CCCN1C(=O)[C@@H](CC(=O)N1CCCCC1)NS(=O)(=O)Cc1ccccc1

>  <Ki>
> 50 µM

$$$$
>  <structure smiles>
NCc1ccc(Cl)cc1CNC(=O)[C@@H]1C[C@H](N)CN1C(=O)[C@@H](CC(=O)N1CCNCC1)NS(=O)(=O)Cc1ccccc1

>  <Ki>
> 20 µM

$$$$

Moving on to another compound below.
The compound CN(C(=O)C[C@@H](NS(=O)(=O)Cc1ccccc1)C(=O)N1CCC[C@H]1C(=O)NCc1cc(Cl)ccc1CN)C1CCNCC1 on Human urokinase type plasminogen activator (h u-PA) (Homo sapiens, UniProt P00749): Ki was > 100 µM

* * *

# target entity: Human Activated Protein C (h aPC) (Homo sapiens)
# test method notes: Inhibition of human activated protein C (reference enzyme)
# assay context: Pefachrome PCa substrate
property: Ki

>  <compound>
NCc1ccc(Cl)cc1CNC(=O)[C@@H]1CCCN1C(=O)[C@@H](CC(=O)N1CCSCC1)NS(=O)(=O)Cc1ccccc1 [Compound 2.37]

>  <target entity>
Human Activated Protein C (h aPC) (Homo sapiens)

>  <Ki>
> 40 µM

$$$$
>  <compound>
NCc1ccc(Cl)cc1CNC(=O)[C@@H]1CCCN1C(=O)[C@@H](CC(=O)N1CCOCC1)NS(=O)(=O)Cc1ccccc1 [Compound 2.36]

>  <target entity>
Human Activated Protein C (h aPC) (Homo sapiens)

>  <Ki>
> 100 µM

$$$$
>  <compound>
NCc1ccc(Cl)cc1CNC(=O)[C@@H]1C[C@@H](N)CN1C(=O)[C@@H](CCC(=O)N1CCOCC1)NS(=O)(=O)Cc1ccccc1 [Compound 2.25]

>  <target entity>
Human Activated Protein C (h aPC) (Homo sapiens)

>  <Ki>
> 100 µM

$$$$
>  <compound>
NCc1ccc(Cl)cc1CNC(=O)[C@@H]1CCCN1C(=O)[C@@H](CC(=O)N1CC[C@H](N)C1)NS(=O)(=O)Cc1ccccc1 [Compound 2.12]

>  <target entity>
Human Activated Protein C (h aPC) (Homo sapiens)

>  <Ki>
> 25 µM

$$$$
>  <compound>
NCc1ccc(Cl)cc1CNC(=O)[C@@H]1C[C@H](N)CN1C(=O)[C@@H](CC(=O)N1CCNCC1)NS(=O)(=O)Cc1ccccc1 [Compound 2.35]

>  <target entity>
Human Activated Protein C (h aPC) (Homo sapiens)

>  <Ki>
> 100 µM

$$$$

Moving on to another compound below.
The recorded Ki for entry NCc1ccc(Cl)cc1CNC(=O)[C@@H]1CCCCN1C(=O)[C@@H](CC(=O)N1CCOCC1)NS(=O)(=O)Cc1ccccc1 [Compound 2.14] equals > 20 µM

* * *

# target entity: Human Activated Protein C (h aPC) (Homo sapiens, UniProt P04070)
# Sequence (P04070 212-450 limits assumed): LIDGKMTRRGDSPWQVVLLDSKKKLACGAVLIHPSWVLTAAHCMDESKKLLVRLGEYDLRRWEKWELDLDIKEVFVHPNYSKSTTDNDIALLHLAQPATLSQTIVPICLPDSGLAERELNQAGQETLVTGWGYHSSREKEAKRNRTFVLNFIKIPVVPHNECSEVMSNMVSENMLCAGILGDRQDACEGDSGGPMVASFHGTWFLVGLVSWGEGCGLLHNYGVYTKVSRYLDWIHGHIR
# Sequence (P04070 43-197 partner limits assumed): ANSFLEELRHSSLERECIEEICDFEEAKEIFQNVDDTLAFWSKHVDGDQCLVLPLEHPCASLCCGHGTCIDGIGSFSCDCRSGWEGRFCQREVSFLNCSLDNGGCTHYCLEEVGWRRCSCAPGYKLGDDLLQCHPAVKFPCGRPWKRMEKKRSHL
# test method notes: Inhibition of human activated protein C (reference enzyme)
# assay context: Pefachrome PCa substrate
property: Ki

Some compounds with known Ki results, for comparison:
>  <compound>
NCc1ccc(Cl)cc1CNC(=O)[C@@H]1CCCN1C(=O)[C@@H](CC(=O)N1CC[S+]([O-])CC1)NS(=O)(=O)Cc1ccccc1

>  <target entity>
Human Activated Protein C (h aPC) (Homo sapiens, UniProt P04070)

>  <test value>
> 50 µM

$$$$
>  <compound>
CN(C(=O)C[C@@H](NS(=O)(=O)Cc1ccccc1)C(=O)N1CCC[C@H]1C(=O)NCc1cc(Cl)ccc1CN)C1CCNCC1

>  <target entity>
Human Activated Protein C (h aPC) (Homo sapiens, UniProt P04070)

>  <test value>
> 10 µM

$$$$

The recorded Ki for entry NCc1ccc(Cl)cc1CNC(=O)[C@@H]1C[C@@H](N)CN1C(=O)[C@@H](CC(=O)N1CCNCC1)NS(=O)(=O)Cc1ccccc1 equals > 20 µM
